- Test system: A2780 ovarian cells
- test: A2780 Ovarian Cell Proliferation Assay in Lipid Reduced Medium, without Palmitate
- Format: cell-based
- cond: Homo sapiens, A2780; lipid reduced medium, without palmitate, 96 h, MTT; read-out: Proliferation A2780 w/o Palmitate pIC50 (converted)
readout.name: IC50 (nM)
Answers are plain numbers, in nM.

Use these answered entries as a reference point.
COc1ccc(C(=O)Nc2cc(C(=O)N3CCC(c4ccc(-c5cnn(C)c5)cc4)CC3)ccc2C)cc1Cl; 85.1
COc1ccccc1C(=O)Nc1cc(C(=O)N2CCC(c3ccc(-c4cnn(C)c4)cc3)CC2)ccc1C; 955
Cc1ccc(C(=O)N2CCC(c3ccc(-c4ccccc4C)cc3)CC2)cc1NC(=O)c1ccc(NC(C)C)nc1; 389

// input: 2 compounds below; output: IC50 for each
1. Cc1ccc(C(=O)N2CC(c3ccc(-c4ccnc5ccccc45)cc3)C2)cc1NC(=O)c1ccc(NC(C)C)nc1
2. Cc1ccc(C(=O)N2CCC(c3ccc(-c4cnn(C)c4)cc3)CC2)cc1NC(=O)C1CCN(C2CCC2)C1 (stereo not shown)

result:
33.9
148

The compound CC(C)Nc1ccc(C(=O)Nc2cc(C(=O)N3CCC(c4ccc(-c5cnn(C)c5)cc4)CC3)ccc2O)cn1 , when measured on A2780 ovarian cells, yielded IC50 of 316

----------
- System: A2780 ovarian cells
- test: A2780 Ovarian Cell Proliferation Assay in Lipid Reduced Medium, without Palmitate
- Assay type: cell-based
- cond: Homo sapiens, A2780; lipid reduced medium, without palmitate, 96 h, MTT; read-out: Proliferation A2780 w/o Palmitate pIC50 (converted)
readout.name: IC50

CC(C)Nc1ccc(C(=O)Nc2cc(C(=O)N3CCC(c4ccc(-c5ccnn5C)cc4)CC3)ccc2Cl)cn1 [Compound 70]; 437 nM
Cc1ccc(C(=O)N2CCC(c3ccc(-c4cnn(CCN(C)C)c4)cc3)CC2)cc1NC(=O)c1ccc(NC(C)C)nc1 [Compound 253]; ~257 nM
COc1cc(Cl)cc(C(=O)Nc2cc(C(=O)N3CCC(c4ccc(-c5cnn(C)c5)cc4)CC3)ccc2C)c1 [Compound 128]; ~417 nM
Cc1ccc(C(=O)N2CCC(c3ccc(-c4cnn(C)c4)cc3)CC2)cc1NC(=O)c1ccc(NC2CCC2)nc1 [Compound 134]; ~38 nM

With those in mind, consider the next compound.
// recorded IC50 for CCCN1CCC(C(=O)Nc2cc(C(=O)N3CCC(c4ccc(-c5cnn(C)c5)cc4)CC3)ccc2C)C1 (centres unmarked) [Compound 186] : ~195 nM

----------
- Tested on: A2780 ovarian cells
- test: A2780 Ovarian Cell Proliferation Assay in Lipid Reduced Medium, without Palmitate
- Assay type: cell-based
- cond: Homo sapiens, A2780; lipid reduced medium, without palmitate, 96 h, MTT; read-out: Proliferation A2780 w/o Palmitate pIC50 (converted)
Exam item: assign YES to entries whose IC50 is below 200 nM and NO to entries at or above 200 nM. Note that a value of exactly 200 nM receives NO.

CCCCN1CC(C(=O)Nc2cc(C(=O)N3CCC(c4ccc(-c5cnn(C)c5)cc4)CC3)ccc2C)C1; YES

Please look at the following compound next.
query: Does the reported IC50 of the following compound sit strictly below 200 nM? Cc1ccc(C(=O)N2CCC(c3ccc(-c4cnn(C)c4)cc3)CC2)cc1NC(=O)C1CCNC1 (stereo not drawn)
result: NO
